Recorded Tm, one value per entry.
B1: Rubredoxin, P00268 (parent)
chain: MKKYTCTVCGYIYNPEDGDPDNGVNPGTDFKDIPDDWVCPLCGVGKDQFEEVEE

Variants of: B1
stated-conditions: Clostridium pasteurianum; pH 9.08; Thermal; NMR; Sodium borate 100 mM; reversible: Yes; structure 1IRO; whole UniProt chain shown
Please reply with the bare figure in °C and do not write the unit itself.

These recorded examples may help you get a feel for the data.
| macromolecule-sequence | Tm / °C |
| --- | --- |
| MKKWTCTVCGYIYNPEDGDPDNGINPGTDFKDLPDDWVCPLCGVGKDQFEEVEE [Y4W V24I I33L] | 114 |
| MKKYTCTVCGYIYNPEDGDPDNGVNPGTDFKDLPDDWVCPLCGVGKDQFEEVEE [I33L] | 112 |

Ask: Returns the measured Tm for the input variant. Input: MKKYTCTVCGYIYNPEDGDPDNGINPGTDFKDLPDDWVCPLCGVGKDQFEEVEE [V24I I33L]
Result: 115

Ask: Returns the measured Tm for the input variant. Input: MKKYTCTVCGYIYNPEDGDPDNGINPGTDFKDIPDDWVCPLCGVGKDQFEEVEE [V24I]
Result: 110

# credit: FireProtDB (doi:10.1016/j.bpc.2006.10.013)
